Reported EC50 (nM) of stimulation of [35S]GTPγS binding by item:
- test.target: human ORL-1 receptor (opioid receptor like 1) (human, UniProt P41146 1-370)
- Sequence (P41146 whole entry): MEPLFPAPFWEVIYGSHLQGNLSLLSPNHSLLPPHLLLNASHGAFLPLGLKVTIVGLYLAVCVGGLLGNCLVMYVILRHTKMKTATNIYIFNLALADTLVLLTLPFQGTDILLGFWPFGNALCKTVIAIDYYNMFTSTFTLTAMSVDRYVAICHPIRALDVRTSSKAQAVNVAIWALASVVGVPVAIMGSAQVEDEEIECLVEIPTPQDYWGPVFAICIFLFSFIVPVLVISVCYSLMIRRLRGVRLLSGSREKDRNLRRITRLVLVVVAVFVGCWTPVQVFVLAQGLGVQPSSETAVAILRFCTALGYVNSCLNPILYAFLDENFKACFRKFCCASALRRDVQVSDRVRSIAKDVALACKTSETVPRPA
- experimental.details: cell-based or functional assay
Numbered stars: 1 amine (or outer) side, 2 acyl side, 3 side chain; on linkers, the order of the positions; unused ones are H or OH. Square brackets hold non-standard residues; d marks the D form. hPhe(2,4-di-NO2) = 2,4-di-NO2 homophenylalanine, O=C([C@H](CCc1ccc([N+](=O)[O-])cc1[N+](=O)[O-])N[*:1])[*:2]; Phe(4-NHAc) = 4-acetamidophenylalanine, CC(=O)Nc1ccc(C[C@H](N[*:1])C(=O)[*:2])cc1; Phe(4-NO2) = N[C@@H](Cc1ccc([N+](=O)[O-])cc1)C(=O)O; Trp(5-CN) = N#Cc1ccc2[nH]cc(C[C@H](N)C(=O)O)c2c1; Phe(4-COOH) = N[C@@H](Cc1ccc(C(=O)O)cc1)C(=O)O; Phe(4-CN) = N#Cc1ccc(C[C@H](N)C(=O)O)cc1; Phe(4-F) = N[C@@H](Cc1ccc(F)cc1)C(=O)O; Phe(4-Me) = Cc1ccc(C[C@H](N)C(=O)O)cc1; Ahx = NCCCCCC(=O)O
recorded.metric: EC50 (nM) of stimulation of [35S]GTPγS binding

[
  {
    "binder": "Ac-R[Phe(4-CN)]YRWR-NH2 (SMILES CC(=O)N[C@@H](CCCNC(=N)N)C(=O)N[C@@H](Cc1ccc(C#N)cc1)C(=O)N[C@@H](Cc1ccc(O)cc1)C(=O)N[C@@H](CCCNC(=N)N)C(=O)N[C@@H](Cc1c[nH]c2ccccc12)C(=O)N[C@@H](CCCNC(=N)N)C(N)=O, also called Ac-Arg-Phe(4-CN)-Tyr-Arg-Trp-Arg-NH2) [VII-43-C]",
    "result.number": 29.5
  },
  {
    "binder": "Ac-RY[Phe(4-NHAc)]RWR-NH2 (SMILES CC(=O)Nc1ccc(C[C@H](NC(=O)[C@H](Cc2ccc(O)cc2)NC(=O)[C@H](CCCNC(=N)N)NC(C)=O)C(=O)N[C@@H](CCCNC(=N)N)C(=O)N[C@@H](Cc2c[nH]c3ccccc23)C(=O)N[C@@H](CCCNC(=N)N)C(N)=O)cc1, also called Ac-Arg-Tyr-Phe(4-NHAc)-Arg-Trp-Arg-NH2) [VII-77-A]",
    "result.number": 115
  },
  {
    "binder": "Ac-[Ahx]YYRWR-NH2 (SMILES CC(=O)NCCCCCC(=O)N[C@@H](Cc1ccc(O)cc1)C(=O)N[C@@H](Cc1ccc(O)cc1)C(=O)N[C@@H](CCCNC(=N)N)C(=O)N[C@@H](Cc1c[nH]c2ccccc12)C(=O)N[C@@H](CCCNC(=N)N)C(N)=O, also called Ac-ε-aminocaproyl-Tyr-Tyr-Arg-Trp-Arg-NH2) [VII-53-B]",
    "result.number": 167
  },
  {
    "binder": "Ac-RY[hPhe(2,4-di-NO2)]RWR-NH2 (SMILES CC(=O)N[C@@H](CCCNC(=N)N)C(=O)N[C@@H](Cc1ccc(O)cc1)C(=O)N[C@@H](CCc1ccc([N+](=O)[O-])cc1[N+](=O)[O-])C(=O)N[C@@H](CCCNC(=N)N)C(=O)N[C@@H](Cc1c[nH]c2ccccc12)C(=O)N[C@@H](CCCNC(=N)N)C(N)=O, also called Ac-Arg-Tyr-hPhe(2,4-di-NO2)-Arg-Trp-Arg-NH2) [VII-71-B]",
    "result.number": 7.5
  },
  {
    "binder": "Ac-RY[Phe(4-NO2)]RWR-NH2 (SMILES CC(=O)N[C@@H](CCCNC(=N)N)C(=O)N[C@@H](Cc1ccc(O)cc1)C(=O)N[C@@H](Cc1ccc([N+](=O)[O-])cc1)C(=O)N[C@@H](CCCNC(=N)N)C(=O)N[C@@H](Cc1c[nH]c2ccccc12)C(=O)N[C@@H](CCCNC(=N)N)C(N)=O, also called Ac-Arg-Tyr-Phe(4-NO2)-Arg-Trp-Arg-NH2) [VII-63-B]",
    "result.number": 3.2
  },
  {
    "binder": "Ac-RYY[Ahx]WR-NH2 (SMILES CC(=O)N[C@@H](CCCNC(=N)N)C(=O)N[C@@H](Cc1ccc(O)cc1)C(=O)N[C@@H](Cc1ccc(O)cc1)C(=O)NCCCCCC(=O)N[C@@H](Cc1c[nH]c2ccccc12)C(=O)N[C@@H](CCCNC(=N)N)C(N)=O, also called Ac-Arg-Tyr-Tyr-ε-aminocaproyl-Trp-Arg-NH2) [VII-55-A]",
    "result.number": 1230
  },
  {
    "binder": "{β‑aminoisobutryl}-RYYRWR-NH2 (also called β-aminoisobutryl-Arg-Tyr-Tyr-Arg-Trp-Arg-NH2) [VII-3-A]",
    "result.number": 68
  },
  {
    "binder": "Ac-R[Phe(4-COOH)]YRWR-NH2 (SMILES CC(=O)N[C@@H](CCCNC(=N)N)C(=O)N[C@@H](Cc1ccc(C(=O)O)cc1)C(=O)N[C@@H](Cc1ccc(O)cc1)C(=O)N[C@@H](CCCNC(=N)N)C(=O)N[C@@H](Cc1c[nH]c2ccccc12)C(=O)N[C@@H](CCCNC(=N)N)C(N)=O, also called Ac-Arg-Phe(4-COOH)-Tyr-Arg-Trp-Arg-NH2) [VII-19-B]",
    "result.number": 854
  },
  {
    "binder": "Ac-RY[Phe(4-F)]RWR-NH2 (SMILES CC(=O)N[C@@H](CCCNC(=N)N)C(=O)N[C@@H](Cc1ccc(O)cc1)C(=O)N[C@@H](Cc1ccc(F)cc1)C(=O)N[C@@H](CCCNC(=N)N)C(=O)N[C@@H](Cc1c[nH]c2ccccc12)C(=O)N[C@@H](CCCNC(=N)N)C(N)=O, also called Ac-Arg-Tyr-Phe(4-F)-Arg-Trp-Arg-NH2) [VII-61-B]",
    "result.number": 2
  },
  {
    "binder": "Ac-RYYR[Trp(5-CN)]R-NH2 (SMILES CC(=O)N[C@@H](CCCNC(=N)N)C(=O)N[C@@H](Cc1ccc(O)cc1)C(=O)N[C@@H](Cc1ccc(O)cc1)C(=O)N[C@@H](CCCNC(=N)N)C(=O)N[C@@H](Cc1c[nH]c2ccc(C#N)cc12)C(=O)N[C@@H](CCCNC(=N)N)C(N)=O, also called Ac-Arg-Tyr-Tyr-Arg-Trp(5-CN)-Arg-NH2) [VII-51-A]",
    "result.number": 156
  },
  {
    "binder": "Ac-R[Phe(4-Me)]YRWR-NH2 (SMILES CC(=O)N[C@@H](CCCNC(=N)N)C(=O)N[C@@H](Cc1ccc(C)cc1)C(=O)N[C@@H](Cc1ccc(O)cc1)C(=O)N[C@@H](CCCNC(=N)N)C(=O)N[C@@H](Cc1c[nH]c2ccccc12)C(=O)N[C@@H](CCCNC(=N)N)C(N)=O, also called Ac-Arg-Phe(4-Me)-Tyr-Arg-Trp-Arg-NH2) [VII-15-B]",
    "result.number": 18.8
  },
  {
    "binder": "Ac-RYYRW[Ahx]-NH2 (SMILES CC(=O)N[C@@H](CCCNC(=N)N)C(=O)N[C@@H](Cc1ccc(O)cc1)C(=O)N[C@@H](Cc1ccc(O)cc1)C(=O)N[C@@H](CCCNC(=N)N)C(=O)N[C@@H](Cc1c[nH]c2ccccc12)C(=O)NCCCCCC(N)=O, also called Ac-Arg-Tyr-Tyr-Arg-Trp-ε-aminocaproyl-NH2) [VII-57-C]",
    "result.number": 358
  }
]
